Compiled literature IC50, tested on High affinity nerve growth factor receptor (Homo sapiens, UniProt P04629).

| Compound | Result |
| --- | --- |
| C[C@@H]1CCc2ncc(F)cc2[C@@H]2CCCN2c2ccc3ncc(n3n2)C(=O)N1 | > 1000 nM |

**Query** Name the recorded IC50 for `CCn1cc(-c2nn(-c3ccccc3)c(NC(=O)N[C@@H]3CN(CCOC)C[C@H]3c3cccc(F)c3)c2C)cn1` .
**Result** < 100 nM

**Query** Also check `Cc1ccc(Nc2ccc(C(=O)c3c[nH]c4ncnc(NCC(F)(F)F)c34)c(F)n2)cn1`
**Result** < 100 nM

**Query** Also `COCCN1C[C@@H](NC(=O)Nc2c(C)c(C(F)(F)CO)nn2-c2ccccc2)[C@H](c2cc(F)cc(F)c2)C1` ?
**Result** < 100 nM

**Query** And the next one, `CC(=O)Nc1ccc(-c2cc(OC3CCOCC3)c3c(C)n[nH]c3c2)cc1N1CCN(Cc2ccc(Cl)o2)CC1` ?
**Result** 74.5 nM

**Query** `Cn1cc2cc(NC(=O)c3coc4c3C(=O)CC3(CC3)C4)ccc2n1` , same question.
**Result** 10.3 nM

**Query** Another compound: Cc1cc(NC(=O)N[C@@H]2c3cc(F)c(F)cc3C(C)(C)C[C@H]2O)c(C2CCOCC2)nc1C(N)=O (racemic)
**Result** 50 to 1000 nM
